Reference source for all entries: the supplement of paper PMC10503962

- Test system: Trichuris muris adult worms
- EXPERIMENT_NOTES: mean motility score (Paragon pixel variance) of adult worms (arbitrary units); higher = more motile worms, i.e. less anthelmintic effect; extreme values may be limits of the assay
- CONDITIONS_USED: 100 µM; 24 h
Assign 1 (yes) whenever mean motility score does not fall below 2000; assign 0 (no) whenever it does.

- C=CC[C@@H]1/C=C(\C)C[C@H](C)C[C@H](OC)[C@H]2O[C@@](O)(C(=O)C(=O)N3CCCC[C@H]3C(=O)O[C@H](/C(C)=C/[C@@H]3CC[C@@H](O)[C@H](OC)C3)[C@H](C)[C@@H](O)CC1=O)[C@H](C)C[C@@H]2OC: 0 (no)
- CCOc1ccc2ccccc2c1C(=O)N[C@@H]1C(=O)N2[C@@H]1SC(C)(C)[C@@H]2C(=O)[O-].O.[Na+] [nafcillin sodium monohydrate]: 1 (yes)
- CC(C)(F)C[C@H](N[C@@H](c1ccc(-c2ccc(S(C)(=O)=O)cc2)cc1)C(F)(F)F)C(=O)NC1(C#N)CC1: 1 (yes)
- CNCC[C@H](Oc1cccc2ccccc12)c1cccs1.Cl [duloxetine hydrochloride]: 0 (no)
- CCN(CC)CCNC(=O)c1c(C)[nH]c(/C=C2\C(=O)Nc3ccc(F)cc32)c1C: 0 (no)
- CCOC(=O)Nc1ccc2c(c1)N(C(=O)CCN1CCOCC1)c1ccccc1S2.Cl [moricizine hydrochloride]: 0 (no)
- CC(=O)O[C@]1(C(C)=O)CC[C@H]2[C@@H]3C=C(Cl)C4=CC(=O)CC[C@]4(C)[C@H]3CC[C@@]21C [chlormadinone acetate]: 1 (yes)
- CC1(C)O[C@@H]2C[C@H]3[C@@H]4C[C@H](F)C5=CC(=O)C=C[C@]5(C)[C@@]4(F)[C@@H](O)C[C@]3(C)[C@]2(C(=O)CO)O1 [fluocinolone acetonide]: 1 (yes)
- CO/N=C(\C(=O)N[C@@H]1C(=O)N2C(C(=O)[O-])=C(COC(N)=O)CS[C@H]12)c1ccco1.[Na+] [cefuroxime sodium]: 1 (yes)
- Cc1cn([C@H]2C=C[C@@H](CO)O2)c(=O)[nH]c1=O: 1 (yes)
- Nc1nnc(-c2cccc(Cl)c2Cl)c(N)n1: 1 (yes)
- C#C[C@]1(O)CC[C@H]2[C@@H]3CCC4=CC(=O)CC[C@@H]4[C@H]3CC[C@@]21CC: 1 (yes)
- CCOc1cc(N)c(Cl)cc1C(=O)NCC1CN(Cc2ccc(F)cc2)CCO1 (stereo not drawn) [mosapride]: 1 (yes)

====

- Test system: Trichuris muris adult worms
- EXPERIMENT_NOTES: mean motility score (Paragon pixel variance) of adult worms (arbitrary units); higher = more motile worms, i.e. less anthelmintic effect; extreme values may be limits of the assay
- CONDITIONS_USED: 100 µM; 24 h
# mean motility score annotations
PROPERTY: mean motility score

* NC(CO)(CO)CO | 2770
* Nc1ncnc2c1ncn2[C@@H]1O[C@H](CO)[C@@H](O)[C@H]1O | 3520
* CC(C)(C)NCC(O)c1ccc(O)c(CO)c1.O=S(=O)(O)O (centres undefined) [albuterol sulfate] | 1690
* NC(N)=O | 4760
* Clc1ccc2c(c1)C(N1CCNCC1)=Nc1ccccc1O2 | 804
* Nc1ccc(S(=O)(=O)NC(=O)c2ccccc2)cc1 [sulfabenzamide] | 4050
* CCOC(=O)C1=C(COCCN)NC(C)=C(C(=O)OC)C1c1ccccc1Cl (centres undefined) | 8.67
* N[C@@H](CC(=O)O)C(=O)O | 3610
* CCCNCC(O)COc1ccccc1C(=O)CCc1ccccc1 (centres undefined) | 1050
* CC12CC3CC(C)(C1)CC(N)(C3)C2.Cl [memantine hydrochloride] | 2620
* CN1CC(=O)N2[C@H](c3ccc4c(c3)OCO4)c3[nH]c4ccccc4c3C[C@@H]2C1=O | 990
* CC(C)c1c(C(=O)Nc2ccccc2)c(-c2ccccc2)c(-c2ccc(F)cc2)n1CC[C@@H](O)C[C@@H](O)CC(=O)O | 2620
* COc1ccc(-c2ccc3cc(C(=O)O)ccc3c2)cc1C12CC3CC(CC(C3)C1)C2 | 3410
* Cl.O=C1CC2(CCCC2)CC(=O)N1CCCCN1CCN(c2ncccn2)CC1 [buspirone hydrochloride] | 4250
* CC[N+](C)(C)c1cccc(O)c1.[Cl-] [edrophonium chloride] | 2890
* CSc1ccc(C(=O)c2nc(O)[nH]c2C)cc1 | 1970
* N=C(NCCCCCCNC(=N)NC(=N)Nc1ccc(Cl)cc1)NC(=N)Nc1ccc(Cl)cc1 | 320
* Nc1nc(O)c2ncn(COC(CO)CO)c2n1 | 2950
* CCCN1CCCC[C@H]1C(=O)Nc1c(C)cccc1C | 2600
